System: HOP-92
experimental-details: NCI tumour cell line growth inhibition, 48 h
Counter-ions that a name gives are not always drawn. The source made the active and inactive calls. No stated cut-off is given here; in the data, active = GI50 up to about 1.1 µM and inactive = higher.
Listing of entries alongside the reported GI50.
measure: GI50

| molecule | measure | measured-result |
| --- | --- | --- |
| Clc1ccccc1C(n1ncc2ccccc21)n1ncc2ccccc21 | GI50 | 24.3 µM (inactive) |
| Cc1ccc(-c2cc(-c3ccc(Cl)cc3)nc(/N=C3\C(=O)N(CN4CCOCC4)c4ccccc43)n2)cc1 | GI50 | 22.5 µM (inactive) |
| CC1=C(C2=C(C)C(=O)c3c(c(C=O)c(O)c(O)c3C(C)C)C2=O)C(=O)c2c(C=O)c(O)c(O)c(C(C)C)c2C1=O [GOSSYPOLONE] | GI50 | 2.53 µM (inactive) |
| CCOC(=O)C1=[N+]([O-])OC2=C(O)CCCC21 (stereo not given) | GI50 | > 100 µM (inactive) |
| CP(=O)(O)C(N)c1ccccc1 (stereo not given) | GI50 | > 100 µM (inactive) |
| C/C=C/C[C@@H](C)C(=O)C1C(=O)N[C@@H](C(C)C)C(=O)N(C)CC(=O)N(C)[C@@H](CC(C)C)C(=O)N[C@@H](C(C)C)C(=O)N(C)[C@@H](CC(C)C)C(=O)N[C@@H](C)C(=O)N[C@@H](C)C(=O)N(C)[C@@H](CC(C)C)C(=O)N(C)[C@@H](CC(C)C)C(=O)N(C)[C@@H](C(C)C)C(=O)N1C (stereo not given in full) | GI50 | 7.26 µM (inactive) |
| C=C(C)C1CCC(C(=O)O)CC1 (stereo not given) | GI50 | > 100 µM (inactive) |
| CCOC(=O)c1csc(NC(=O)C(C)N2CCCCC2)n1 (stereo not given) | GI50 | > 100 µM (inactive) |
| CC(CN1c2ccccc2Sc2ccccc21)N(C)C (stereo not given) [PROMETHAZINE HYDROCHLORIDE] | GI50 | 17.1 µM (inactive) |
| O=C1Cc2c([nH]c3cc(Br)ccc23)-c2ccccc2N1 | GI50 | 31.1 µM (inactive) |

Data origin: ChEMBL document CHEMBL1201862
